test: Aqueous solubility assay in Normal Ringer Solution; conditions: Normal Ringer Solution, saline or isotonic, kinetic from dmso stock
VALUE TYPE: solubility at 40 min

Example results:
COMPOUND | solubility at 40 min
CCc1ccccc1-c1ccc(C2CCN(C(=O)c3ccc(F)cn3)C2)c(CO)c1 (stereo not shown) | > 15 µM
OCCOc1cc(-c2ccccc2)ccc1N1CC[C@@H](Oc2ccc(C(F)(F)F)cn2)C1 | ~2 µM
NC(=O)c1cc(-c2ccncc2)ccc1N1CC[C@H](Oc2ccc(C(F)(F)F)cn2)C1 | > 3.9 µM

Kindly consider the entry below.
Could you share which solubility at 40 min value was measured for O=C(c1ccc(F)cc1)c1ccc(N2CC[C@H](Oc3ncccc3Cl)C2)c(CO)c1 ?
1.2 µM
